- protocol: viability loss in pontine glioma line – cell-based, JHH-DIPG-1, MIPE4.0, CellTiter-Glo, qHTS, dose response (AID 1347062);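 as to AC50: cells exposed to compound for two days before readout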
- measurementConditions: JHH-DIPG-1 viability, CellTiter-Glo ATP luminescence
Records with an inconclusive call do not appear. The source made the active and inactive calls. The limit is not given here; nearly all actives have AC50 up to about 27 µM.
Parameter call: string, one of 1.0 = active, 0.0 = inactive

CN(C)CCN1C(=O)c2cccc3cc(N)cc(c23)C1=O :: 1.0
COc1ccc(C(=O)CC2(O)C(=O)Nc3c(Cl)ccc(Cl)c32)cc1 (centres undefined) :: 1.0
NC1(c2ccc(-c3nc4ccn5c(=O)[nH]nc5c4cc3-c3ccccc3)cc2)CCC1 :: 1.0
Clc1cccc(-n2nnnc2NCc2ccccc2Oc2ccccn2)c1Cl :: 0.0
O=C(c1ccc(C(=O)N2CCC(N3CCCC3)CC2)c(Nc2ccccc2)c1)N1CCC(N2CCCC2)CC1 :: 0.0

How was CS(=O)(=O)c1ccc(C(=O)Nc2ccc(Cl)c(-c3ccccn3)c2)c(Cl)c1 classified in this test? 0.0

Fill in: this test's call for O=C(O)C1(Cc2cccc(Nc3nccs3)n2)CCC(Oc2cccc(Cl)c2F)CC1 (centres undefined) is ___ 0.0

Which outcome was entered for the compound O=C(O)CCNc1cc(N2CCc3ccccc3CC2)nc(-c2ccccn2)n1 in this test? 0.0

Per the assay record, what outcome was assigned to Cc1ccc(C(=O)N(CCCN)[C@@H](c2oc3cc(Cl)ccc3c(=O)c2Cc2ccccc2)C(C)C)cc1 ? 1.0

Query: recorded result category for CCOC(CN1C(=O)[C@](CC(=O)Nc2ccc(C)cc2)(NC(=O)Nc2ccc(C)cc2)c2ccccc21)OCC in this test 0.0

====

- protocol: viability loss in pontine glioma line – cell-based, SU-DIPG-XIII, MIPE5.0, CellTiter-Glo, qHTS, dose response (AID 1347064);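 as to AC50: cells exposed to compound for 48 hours before the viability read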
- measurementConditions: CellTiter-Glo ATP luminescence
Results filed as inconclusive are left out. The source made the active and inactive calls. No cut-off is given here; in the data, nearly all actives have AC50 up to about 23 µM.
endpoint: AC50

COc1ccc(/C=C\c2cc(OC)c(OC)c(OC)c2)cc1O :: 18.6 nM (active)
CN[C@@H](C)C(=O)N[C@H]1CCCC[C@H]2CC[C@@H](C(=O)N[C@@H](c3ccccc3)c3cn(CCCCc4ccc(CCCCn5cc([C@@H](NC(=O)[C@@H]6CC[C@@H]7CCCC[C@H](NC(=O)[C@H](C)NC)C(=O)N76)c6ccccc6)nn5)cc4)nn3)N2C1=O :: inactive
C[C@H]1CN(C[C@H](Cc2ccccc2)C(=O)NCC(=O)O)CC[C@@]1(C)c1cccc(O)c1 :: inactive

====

Listed below: inhibition values for each entry.
- protocol: growth inhibition, MDA-MB-436, cell-based, BGB or cisplatin combos, synergistic combos for chromothripsis tumors (AID 1671458);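 also: cells exposed for 96 hours; 0% = vehicle DMSO and 100% = killing by high DMSO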
- measurementConditions: MDA-MB-436 breast carcinoma growth inhibition, drug combinations; measured here: BGB combination; at 5 µM; stronger effect = higher value
Answer format: numeric, % implied, no suffix.

The following compounds have reported results that may help.
CN(C)Cc1c(C(=O)NCCOc2ccc(C(=O)NO)cc2)oc2ccccc12 :: 60
Nc1nc2n[nH]nc2c(=O)[nH]1 :: -5.12
COc1ccc(C(=O)CC2(O)C(=O)Nc3c(Cl)ccc(Cl)c32)cc1 (stereo unspecified) :: 40.2
O=C(COc1cccc2c(=O)[nH]ccc12)c1ccccc1 :: -20.7
CC(C)OC(=O)[C@H](C)N[P@](=O)(OC[C@H]1O[C@@H](n2ccc(=O)[nH]c2=O)[C@](C)(F)[C@@H]1O)Oc1ccccc1 :: -8.4

Tell me its inhibition given CN(C)CCN1C(=O)c2cccc3cc(N)cc(c23)C1=O as the entry. 10.1

Using known records, supply inhibition for O=C(/C=C/c1cccc(S(=O)(=O)Nc2ccccc2)c1)NO 62

Fill in reported inhibition for this entry: C[C@]12CCCN1CC1=NNC(=O)c3cc(F)cc4[nH]c2c1c34 -31.4

For the compound CN(C)c1ccc(C(=O)NCCCCCCC(=O)NO)cc1 , give its reported inhibition. 46.7

Query inhibition for c1cc(Nc2cc(C3CC3)[nH]n2)nc(Nc2ccc3nc[nH]c3c2)n1 75.1

Indicate its recorded inhibition; the compound in question is O=c1cc(N2CCOCC2)oc2c(-c3cccc4c3sc3ccccc34)cccc12 9.28

Supply inhibition value. Item: O=c1cc(N2CCOCC2)oc2c1ccc1ccccc12 -21.1

Quickly give me recorded inhibition for CCCCc1nc2cc(/C=C/C(=O)NO)ccc2n1CCN(CC)CC 52.6

====

- protocol: growth inhibition of DIPG cells – cell-based, MIPE5.0 library, qHTS (AID 1347068);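 as to IC50: cells exposed to compound for 48 hours before viability readout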
- measurementConditions: SU-DIPG-XXV viability
Records with an inconclusive call do not appear. Active and inactive are the calls of the source. Cut-off not given; nearly all actives show IC50 up to about 30 µM.
Lab note: assign the record to one of active, inactive

COc1cc(CCc2cc(NC(=O)c3ccc(N4C[C@@H](C)N[C@@H](C)C4)cc3)n[nH]2)cc(OC)c1 :: active
Nc1n[nH]c2nnc(-c3c(-c4ccccc4)nn4ccccc34)cc12 :: inactive
CC(C)(O)c1cc2nc(-c3cnc(N)nc3)nc(N3CCOCC3)c2s1 :: active
CS[C@H]1SC[C@@H]2C(=O)N(C)[C@H](C(C)C)C(=O)OC[C@H](NC(=O)c3cnc4ccccc4n3)C(=O)N[C@H](C)C(=O)N(C)[C@H]1C(=O)N(C)[C@H](C(C)C)C(=O)OC[C@H](NC(=O)c1cnc3ccccc3n1)C(=O)N[C@H](C)C(=O)N2C :: active

Hi, do you know how COCCN1CCN(Cc2ccc(-c3n[nH]c4c3C(=O)c3c(NC(=O)NN5CCOCC5)cccc3-4)cc2)CC1 came out in this test? active

Record lookup: outcome of this test for CCn1c(N)c(C(=O)NC)c(=O)c2ccc(C#CC(C)(O)COC)nc21 (stereo not drawn) ? inactive

Answer briefly: the call reported for CCN1CCN(Cc2ccc(NC(=O)Nc3ccc(Oc4cc(NC)ncn4)cc3)cc2C(F)(F)F)CC1 in this assay. active

Called result for O=C1OC2(CCC(C(=O)Nc3ccn(-c4ccccc4F)n3)CC2)c2cnccc21 (stereo not drawn) inactive

====

- protocol: drug combination growth inhibition, ovarian cancer – cell-based, oncology-focused library, rucaparib conditional, profiling panel (AID 1508598)
- measurementConditions: patient-derived ovarian cancer cells, CellTiter-Glo viability, 144 h; at 0.000305 µM; OCI-C5x cells; with rucaparib 10 µM; stronger effect = lower value; 100% = cells with rucaparib alone
endpoint: viability (%)
Express your answer in %, writing the number without its unit.

CNC(=O)c1ccc(N2C(=S)N(c3ccc(C#N)c(C(F)(F)F)c3)C(=O)C2(C)C)cc1F :: 110
NC1(c2ccc(-c3nc4ccn5c(=O)[nH]nc5c4cc3-c3ccccc3)cc2)CCC1 :: 119
CN1CCN(c2ccc(OC(F)(F)F)c(Nc3ncc4c(n3)-c3c(c(C(N)=O)nn3CCO)CC4)c2)CC1 :: 119
CN1CCN(c2ccc3nc(-c4c(N)c5c(F)cccc5[nH]c4=O)[nH]c3c2)CC1 :: 112

Let us move to another entry and its viability.
Output measured viability for this item: S=C(NCc1ccc2c(c1)OCO2)N1CCN(c2ncnc3c2oc2ccccc23)CC1 112

====

- protocol: galactose survival enhancers in mitochondrial complex I cybrids – cell-based, galactose medium, ATP luminescence, primary screen (AID 1645843);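 also: positive z means more ATP and so rescue of galactose-driven cybrid death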
- measurementConditions: complex I mutant cybrid cells, 72 h, stronger effect = higher value
Calls of active or inactive are those of the source.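 The calls were made as follows: active = z-score of at least 1.8 in each of two replicates, scored against plate mean and spread of sample wells; inactive = the rest.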
endpoint: z-score

CC(C)[C@H]1c2ccc(F)cc2CC[C@@]1(CCN(C)CCCc1nc2ccccc2[nH]1)OC(=O)C1CC1 :: -0.705 (inactive)

Tell us which z-score value is on record for CC(=O)N(O)[C@@H]1c2cc(C#N)ccc2OC(C)(C)[C@H]1O 0.655 (inactive)

Report measured z-score; entry is COc1cccc(CCc2ccccc2OCC[C@@H]2C[C@@H](O)CN2C)c1 -0.705 (inactive)

Note z-score for the compound shown: NCCNS(=O)(=O)c1cccc2c(Cl)cccc12 -0.845 (inactive)

State its z-score: CC(C)c1ccc2c(c1)CC[C@H]1[C@](C)(CN)CCC[C@]21C -0.56 (inactive)

Please indicate z-score recorded for COc1cc2nc(N3CCCN(C)CC3)nc(NC3CCN(Cc4ccccc4)CC3)c2cc1OC -1.38 (inactive)

Report z-score, nothing else, for this compound: N=C(N)c1ccc(N2CCN(C3CCN(CC(=O)O)CC3)CC2)cc1 -0.165 (inactive)

Name the recorded z-score of the compound listed here: c1ccc2nc(C3=NCCN3)cnc2c1 0.085 (inactive)

Report measured z-score; entry is COc1cccc(C=NC=Nc2cccc(OC)c2)c1 -0.08 (inactive)

====

- protocol: drug combination growth inhibition, ovarian cancer – cell-based, oncology-focused library, rucaparib conditional, profiling panel (AID 1508598)
- measurementConditions: patient-derived ovarian cancer cells, CellTiter-Glo viability, 144 h; at 1.25 µM; OCI-P5x cells; without rucaparib; stronger effect = lower value
Activity calls are given as the source filed them.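 The calls were made as follows: active = normalized viability below 100% at a tested concentration; inactive = the rest.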
endpoint: viability

Past entries and their recorded results:
S=C(NCc1ccc2c(c1)OCO2)N1CCN(c2ncnc3c2oc2ccccc23)CC1 :: 103% (inactive)
Nc1ccc(C(=O)Nc2cccc(-c3nc(N4CCOCC4)c4oc5ncccc5c4n3)c2)cn1 :: 107% (inactive)
CCOc1ccn(-c2ccc(F)cc2)c(=O)c1C(=O)Nc1ccc(Oc2ccnc(N)c2Cl)c(F)c1 :: 97.3% (active)
COc1cc(Nc2ncc3c(n2)-c2ccc(Cl)cc2C(c2c(F)cccc2OC)=NC3)ccc1C(=O)O :: 56.7% (active)
CC(C)Oc1ccc(C(=O)N[C@H](CNC(=O)CN(C)C)Cc2ccc(-c3cn4cccc([C@H](C)O)c4n3)cc2)cc1Cl :: 26.8% (active)
C[C@@H](Oc1cc(-c2cnn(C3CCNCC3)c2)cnc1N)c1c(Cl)ccc(F)c1Cl :: 79.6% (active)
CC(C)(C)c1cc(NC(=O)Nc2ccc(-c3cn4c(n3)sc3cc(OCCN5CCOCC5)ccc34)cc2)no1 :: 87.4% (active)
CN(C)Cc1c(C(=O)NCCOc2ccc(C(=O)NO)cc2)oc2ccccc12 :: 77.6% (active)

--- query ---
Identify measured viability corresponding to NC1(c2ccc(-c3nc4ccn5c(=O)[nH]nc5c4cc3-c3ccccc3)cc2)CCC1 103% (inactive)
